system: human iPSC-derived forebrain organoids; test: NMDA-induced neurotoxicity in human iPSC-derived forebrain organoids; format: cell-based; settings: Homo sapiens, healthy control-2 organoids; NMDA 300 μM; read-out: IC50, protection against NMDA-induced neurotoxicity
measured_parameter: IC50 (µM)
Give your result in µM as a bare value.

*Q* Dear colleague, please send me the reported IC50 for `CCN(CCN)Cc1cccc(Cl)c1` when you can.
*A* 15

----------
tested on: human iPSC-derived forebrain organoids; assay: NMDA-induced neurotoxicity in human iPSC-derived forebrain organoids; assay type: cell-based; conditions: Homo sapiens, healthy control-1 organoids; NMDA 300 μM; read-out: IC50, protection against NMDA-induced neurotoxicity
measured_parameter: IC50 (µM)
Report the value in µM with no unit label.

*Q* Return IC50 for the following compound: `CCN(CCN)Cc1cccc(Cl)c1`
*A* 26

----------
tested on: primary mouse cortical neurons; test: Glutamate neurotoxicity assay in primary cortical neurons; type: cell-based; conditions: Cortical neurone, 20 μM glutamate, compound added 30 min prior, nuclear mCherry-positive neurons, read-out: IC50, protective activity against glutamate-mediated neurotoxicity
measured_parameter: IC50 (µM)
Express your answer in µM, writing the number without its unit.

*Q* Provide IC50 value for the following compound: CCN(CCN)Cc1cccc(Cl)c1 [FP802]
*A* 8.7

----------
target: human GluN1/GluN2B NMDARs (Homo sapiens, UniProt Q05586+Q13224); experiment: Automated patch clamp, NMDARs in HEK293 cells; conditions: +40 mV; glycine 100 μM plus NMDA 40 μM; stable HEK293
Sequence (Q13224 27-1484, other chains not shown): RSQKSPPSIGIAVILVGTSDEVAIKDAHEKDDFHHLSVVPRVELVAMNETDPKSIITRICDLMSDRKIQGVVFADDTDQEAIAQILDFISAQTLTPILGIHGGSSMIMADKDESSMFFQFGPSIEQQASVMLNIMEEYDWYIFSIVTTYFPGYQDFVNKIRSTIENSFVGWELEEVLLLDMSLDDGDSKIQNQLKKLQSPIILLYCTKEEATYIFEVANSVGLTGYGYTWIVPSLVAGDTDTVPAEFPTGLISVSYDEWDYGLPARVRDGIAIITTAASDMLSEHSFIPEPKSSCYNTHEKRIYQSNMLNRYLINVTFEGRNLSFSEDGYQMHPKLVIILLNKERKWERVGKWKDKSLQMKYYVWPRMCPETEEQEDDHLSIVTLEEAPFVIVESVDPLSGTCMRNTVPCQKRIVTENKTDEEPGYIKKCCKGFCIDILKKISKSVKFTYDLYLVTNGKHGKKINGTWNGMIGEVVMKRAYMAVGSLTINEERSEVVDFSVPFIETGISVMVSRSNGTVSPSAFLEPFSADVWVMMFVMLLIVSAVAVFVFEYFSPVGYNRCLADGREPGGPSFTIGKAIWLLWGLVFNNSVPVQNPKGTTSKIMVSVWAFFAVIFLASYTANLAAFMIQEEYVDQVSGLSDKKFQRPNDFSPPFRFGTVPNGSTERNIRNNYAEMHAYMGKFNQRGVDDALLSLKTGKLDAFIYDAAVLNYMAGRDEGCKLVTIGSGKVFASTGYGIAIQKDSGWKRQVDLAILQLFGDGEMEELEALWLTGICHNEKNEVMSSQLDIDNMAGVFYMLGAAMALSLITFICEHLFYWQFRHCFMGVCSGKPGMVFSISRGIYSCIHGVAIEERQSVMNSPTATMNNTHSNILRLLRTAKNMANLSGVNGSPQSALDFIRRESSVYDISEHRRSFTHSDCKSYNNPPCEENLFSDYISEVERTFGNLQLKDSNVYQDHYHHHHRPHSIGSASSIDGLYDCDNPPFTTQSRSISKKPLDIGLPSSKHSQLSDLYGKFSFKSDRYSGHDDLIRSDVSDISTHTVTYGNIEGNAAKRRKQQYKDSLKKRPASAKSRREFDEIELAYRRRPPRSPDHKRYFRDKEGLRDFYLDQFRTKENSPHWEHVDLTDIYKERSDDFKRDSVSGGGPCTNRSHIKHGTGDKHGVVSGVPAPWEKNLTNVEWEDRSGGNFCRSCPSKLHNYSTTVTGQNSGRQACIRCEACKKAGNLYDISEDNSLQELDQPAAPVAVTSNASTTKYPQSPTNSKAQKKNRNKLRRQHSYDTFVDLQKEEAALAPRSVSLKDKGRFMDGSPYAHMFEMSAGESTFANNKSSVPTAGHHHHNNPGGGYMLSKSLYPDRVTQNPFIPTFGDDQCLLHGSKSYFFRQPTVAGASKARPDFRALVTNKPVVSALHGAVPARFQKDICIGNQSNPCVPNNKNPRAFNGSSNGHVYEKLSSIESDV
measured_parameter: IC50

*Q* Please supply the value of reported IC50 for the item `CCN(CCN)Cc1cccc(Cl)c1`
*A* > 250 µM
